These data points were gathered from patent US7132248.

- measurement_target: T1, rat GALR2 (rat)
- T1 chain: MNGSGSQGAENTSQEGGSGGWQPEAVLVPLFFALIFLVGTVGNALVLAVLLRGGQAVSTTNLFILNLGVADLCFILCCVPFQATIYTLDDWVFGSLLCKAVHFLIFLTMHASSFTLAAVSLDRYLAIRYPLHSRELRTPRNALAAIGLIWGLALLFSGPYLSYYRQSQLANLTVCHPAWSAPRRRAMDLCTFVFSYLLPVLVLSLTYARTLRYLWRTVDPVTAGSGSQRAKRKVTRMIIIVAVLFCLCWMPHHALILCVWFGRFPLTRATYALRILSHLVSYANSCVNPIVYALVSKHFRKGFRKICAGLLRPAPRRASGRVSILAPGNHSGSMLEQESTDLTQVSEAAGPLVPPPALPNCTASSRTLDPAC
- protocol_summary: competition, radioligand COS-7
assay_endpoint: pKi
Recall that pKi is obtained by taking minus log10 of the concentration measured in molar.

q: Given the entry MARGSVILLAWLLLVATLSATLGLGMPTK [rat galanin] , report its measured pKi.
a: 9.28
